# Test system: COLO 205 colon
# RUN_DESCRIPTION: NCI-60 one-dose screen, 48 h (100 = growth as untreated, 0 = no growth, -100 = all killed)
# EXPERIMENTAL_PARAMETERS: 10 µM unless noted
Compounds without any hit were thinned out: in the full panel of roughly 83,000, 20% have a hit. Activity calls are given as the source filed them. The calls were made as follows: active = growth percent below 10; inactive = the rest.
ENDPOINT_NAME: growth

Examples from the recorded data:
Nc1nc(Nc2ccccc2)c2ncn(Cc3ccc4c(c3)OCO4)c2n1 :: 47% (inactive)
C[C@H]1[C@H](C)CC[C@]2(C(=O)O)CC[C@]3(C)C(=CC[C@@H]4[C@@]5(C)C/C(=C/c6ccco6)C(=O)C(C)(C)[C@@H]5CC[C@]43C)[C@H]12 :: -60.9% [100 µM] (active)
C#CCOc1ccc(C2=NN(CC3CC3)C3N=C(Cl)c4ncn(CC5CC5)c4N23)cc1OCC#C (configuration not stated) :: 78.9% (inactive)

Name the recorded growth of the compound listed here: COc1cc(C)cc2oc3oc(=N)c(C(=O)c4ccccc4)cc3c(=O)c12
124% (inactive)

Name the recorded growth of the compound listed here: Nc1cc(N)c(N=Nc2ccc(S(=O)(=O)O)cc2)cc1N=Nc1ccc(-c2ccc(N=Nc3ccc(O)c(C(=O)O)c3)cc2)cc1
109% (inactive)

Name the recorded growth of the compound listed here: Cc1cnc(N)nc1OCCNC(=O)c1cccc(-c2ccc(S(=O)(=O)Nc3ccc4c(c3)N(C(=O)C3CC3)CCC4)cc2)c1
99.1% (inactive)

Name the recorded growth of the compound listed here: CCC(Br)(CC)C(=O)c1ccc(OCC(=O)O)c(Cl)c1Cl
108% (inactive)

---

# Tested on: HCC-2998 colon
# RUN_DESCRIPTION: NCI-60 one-dose screen, 48 h
# EXPERIMENTAL_PARAMETERS: 10 µM unless noted
The panel holds about 83,000 compounds, 20% with a hit somewhere; the sample as a whole holds those more often. Activity calls are given as the source filed them. Rule for the calls: active = growth percent below 10; inactive = the rest.
Please reply with one of these outcomes: YES (active), NO (inactive)

Answered examples (3):
CCOC(=O)c1nc2c3ccccc3ccn2c1C(=O)OC :: NO
CC(=O)Nc1ccc(C=Nc2ccc3ccccc3c2)cc1 :: NO
COc1cc2c(O)n(CCCN3CCOCC3)c3c4cnc5cccc(c(=O)c3c2cc1OC)c54 :: NO

Lab log entry: CC(C)C1=NOC(=O)C1=Cc1cn(-c2ccccc2)nc1-c1ccc(Br)cc1 — outcome as called in the assay?
NO

Lab log entry: COc1ccc(NCc2cn(-c3ccc(C(=O)O)cc3)nc2-c2ccc(C(=O)O)cc2)cc1C(F)(F)F — outcome as called in the assay?
NO

Lab log entry: Cc1ncc(C(=O)Nc2ccc(CN3CCN(C)CC3)c(C(F)(F)F)c2)cc1C#Cc1c(N)ncc2ccc(C#N)cc12 — outcome as called in the assay?
NO

Lab log entry: CCc1ccc(C2=C/C(=C/c3ccccc3)C(=O)N2CCc2ccc(S(N)(=O)=O)cc2)cc1 — outcome as called in the assay?
NO

Lab log entry: COC(=O)C(=Cc1ccccc1[N+](=O)[O-])C(=O)OC — outcome as called in the assay?
NO

Lab log entry: COc1ccc2nc3c(cc2c1)C(=O)CC(c1ccccc1)C3 (stereo not drawn) — outcome as called in the assay?
NO

Lab log entry: CC(C)c1ccc(C(=O)Nc2sc3c(c2C#N)CCC(=O)C3)cc1 — outcome as called in the assay?
NO

Lab log entry: CS(=O)(=O)c1cccnn1 — outcome as called in the assay?
NO

Lab log entry: CN(C)C(=S)Sc1ccc([N+](=O)[O-])cc1[N+](=O)[O-] — outcome as called in the assay?
NO

---

Measured growth accompanies every entry in the list below.
# Test system: EKVX NSCLC
# RUN_DESCRIPTION: NCI-60 one-dose screen, 48 h (100 = growth as untreated, 0 = no growth, -100 = all killed)
# EXPERIMENTAL_PARAMETERS: 10 µM unless noted
Compounds without any hit were thinned out: in the full panel of roughly 83,000, 20% have a hit.
Give the value in % but do not write % after it.

CCCC[C@@H](C=O)NC(=O)[C@H](CC(C)C)NC(=O)[C@H](CC(C)C)NC(=O)OCc1ccccc1 :: -14.2

# evaluate next
Name the recorded growth of the compound listed here: CCOC(=O)CCC[P+](c1ccccc1)(c1ccccc1)c1ccccc1
75.5

---

# Tested on: SW-620 colon
# RUN_DESCRIPTION: NCI-60 one-dose screen, 48 h
# EXPERIMENTAL_PARAMETERS: 10 µM unless noted
Compounds without any hit were thinned out: in the full panel of roughly 83,000, 20% have a hit. Activity calls are given as the source filed them. The calls were made as follows: active = growth percent below 10; inactive = the rest.
Please reply with one of these outcomes: True (active), False (inactive)

Answered examples (8):
CN(C)c1cc(NN=C(c2ccc(O)cc2)c2ccc(O)cc2)c([N+](=O)[O-])cc1[N+](=O)[O-] :: False
CS(=O)(=O)c1cccnn1 :: False
C/C=C/C1OC23CCCCC2C(C#N)(C(=N)O3)C1(C#N)C#N (configuration not stated) :: False
COc1ccc2c(c1)c(-c1noc(C(=O)c3cn(C)c4ncc(Br)cc34)n1)cn2C :: False
Cc1ccc(S(=O)(=O)Oc2ccc(Br)cc2Br)cc1 :: False
N#CC1C(=O)NC(c2ccccc2[N+](=O)[O-])c2sc3c(F)cccc3c21 (configuration not stated) :: False
COc1ccc(C=C2c3ccccc3-c3ccccc32)cc1 :: False
CCOc1ccccc1/C=N\Nc1ccc(S(=O)(=O)c2ccc(N/N=C/c3ccccc3OCC)cc2)cc1 :: False

Continue with the compound presented below.
Lab log entry: COc1ccc2nc3cc(Cl)ccc3c(Nc3ccc(O)cc3)c2c1 — outcome as called in the assay?
False

---

# Tested on: COLO 205 colon
# RUN_DESCRIPTION: NCI-60 one-dose screen, 48 h
# EXPERIMENTAL_PARAMETERS: 10 µM unless noted
The panel holds about 83,000 compounds, 20% with a hit somewhere; the sample as a whole holds those more often. Activity calls are given as the source filed them. The calls were made as follows: active = growth percent below 10; inactive = the rest.
Please reply with one of these outcomes: YES (active), NO (inactive)

Answered examples (5):
O=C(NNc1ccc(-c2ccccc2)nn1)c1ccc(F)cc1 :: NO
CC(C)c1ccc(/C=N/N=C(N)N)cc1 :: NO
O=[N+]([O-])c1ccc(O)c(-c2nc3ccccc3s2)c1 :: NO
O=C(Nc1ccc(Oc2ccc(F)cc2)c(Cl)c1)c1cnccn1 :: NO
Cc1ccc(-c2cc(-c3ccc(C)cc3)nc(NCCNc3ccnc4cc(Cl)ccc34)n2)cc1 :: YES

Lab log entry: CC[C@]12C=CCN3CC[C@@]4(c5ccc(OC)cc5N(C)[C@H]4[C@@](O)(C(=O)OC)[C@@H]1OC(=O)CCC(=O)O[C@H]1CC[C@H]4[C@@H]5CCC6=CC(=O)CC[C@@H]6[C@H]5CC[C@]14C)[C@@H]32 — outcome as called in the assay?
YES

Lab log entry: C=C(C)C1CCC2(C(=O)O)CCC3(C)C(CCC4C5(C)CCC(OC(=O)NCc6ccccc6)C(C)(C)C5CCC43C)C12 (configuration not stated) — outcome as called in the assay?
NO

Lab log entry: CC(C)(C)c1cc(C(=O)Nc2ccc(C(=O)NCCN)cc2)cc(C(C)(C)C)c1 — outcome as called in the assay?
YES

Lab log entry: C=C(C)[C@@H]1CC[C@]2(c3ncc(C)o3)CC[C@]3(C)[C@H](CC[C@@H]4[C@@](C)(CCC#N)[C@H](C(=C)C)CC[C@]43C)[C@@H]12 — outcome as called in the assay?
YES

Lab log entry: Cc1cnc(N)nc1OCC(C)(C)CNC(=O)c1cccc(-c2ccc(S(=O)(=O)Nc3ccc4c(c3)N(C(=O)C3CC3)CCC4)cc2)c1 — outcome as called in the assay?
NO

Lab log entry: CCN=C1C=CC(=C(c2ccc(N(CC)CC)cc2)c2ccc(N(CC)CC)cc2)c2ccccc21 — outcome as called in the assay?
YES

Lab log entry: Cc1ccccc1-n1nnc(C(=O)Nc2nc3ccc(F)cc3s2)c1C — outcome as called in the assay?
NO

---

# Tested on: MCF7 breast
# RUN_DESCRIPTION: NCI-60 one-dose screen, 48 h (100 = growth as untreated, 0 = no growth, -100 = all killed)
# EXPERIMENTAL_PARAMETERS: 10 µM unless noted
This is part of a sample that, as a whole, favours compounds with a hit. Of some 83,000 tested, about 20% had one in any assay.
Measured growth accompanies every entry in the list below.
Give the value in % but do not write % after it.

CC(C)c1ccc(/C=N/N=C(N)N)cc1 :: 8.1
CCCCN(CC)CC(CC)Nc1cc(OC)cc2cccnc12 (stereo not drawn) :: 98.5

# evaluate next
Report growth on MCF7 breast for this entry: CCCCN(CCCC)CC(O)c1ccc(OCc2ccccc2)c2ccccc12 (stereo not drawn)
95.7
